The measured values listed here are drawn from patent US4190661A.

Tested on: Pseudomonas aeruginosa
ASSAY: antibacterial activity in vitro, dilution in liquid medium method (MIC/MBC)
Type: cell-based
COND: 18 hours, 37° C., read-out: minimum inhibiting concentration (MIC)
Measured MIC, listed per entry for reference.

Consider the compound CCn1cc(C(=O)O)c(=O)c2c1ccc1cnn(C)c12 tested on Pseudomonas aeruginosa; state its MIC.
> 10 µg/mL

Consider the compound CCn1cc(C(=O)O)c(=O)c2c3cnn(Cc4ccccc4)c3ccc21 tested on Pseudomonas aeruginosa; state its MIC.
> 10 µg/mL

Consider the compound CCn1cc(C(=O)O)c(=O)c2c3cn[nH]c3ccc21 tested on Pseudomonas aeruginosa; state its MIC.
> 10 µg/mL

Consider the compound CCn1cc(C(=O)O)c(=O)c2c3[nH]ncc3ccc21 tested on Pseudomonas aeruginosa; state its MIC.
> 10 µg/mL

Consider the compound CCn1cc(C(=O)O)c(=O)n2nc3ccccc3c12 tested on Pseudomonas aeruginosa; state its MIC.
> 100 µg/mL

# context switch: different compound, same MIC
Consider the compound CCn1cc(C(=O)O)c(=O)c2ccc3[nH]ncc3c21 tested on Pseudomonas aeruginosa; state its MIC.
> 100 µg/mL
